- target.or.test.system: EPHB2 (Homo sapiens)
- Construct: purchased Thermo Fisher Scientific (SelectScreen service)
- Sequence (P29323 19-1055): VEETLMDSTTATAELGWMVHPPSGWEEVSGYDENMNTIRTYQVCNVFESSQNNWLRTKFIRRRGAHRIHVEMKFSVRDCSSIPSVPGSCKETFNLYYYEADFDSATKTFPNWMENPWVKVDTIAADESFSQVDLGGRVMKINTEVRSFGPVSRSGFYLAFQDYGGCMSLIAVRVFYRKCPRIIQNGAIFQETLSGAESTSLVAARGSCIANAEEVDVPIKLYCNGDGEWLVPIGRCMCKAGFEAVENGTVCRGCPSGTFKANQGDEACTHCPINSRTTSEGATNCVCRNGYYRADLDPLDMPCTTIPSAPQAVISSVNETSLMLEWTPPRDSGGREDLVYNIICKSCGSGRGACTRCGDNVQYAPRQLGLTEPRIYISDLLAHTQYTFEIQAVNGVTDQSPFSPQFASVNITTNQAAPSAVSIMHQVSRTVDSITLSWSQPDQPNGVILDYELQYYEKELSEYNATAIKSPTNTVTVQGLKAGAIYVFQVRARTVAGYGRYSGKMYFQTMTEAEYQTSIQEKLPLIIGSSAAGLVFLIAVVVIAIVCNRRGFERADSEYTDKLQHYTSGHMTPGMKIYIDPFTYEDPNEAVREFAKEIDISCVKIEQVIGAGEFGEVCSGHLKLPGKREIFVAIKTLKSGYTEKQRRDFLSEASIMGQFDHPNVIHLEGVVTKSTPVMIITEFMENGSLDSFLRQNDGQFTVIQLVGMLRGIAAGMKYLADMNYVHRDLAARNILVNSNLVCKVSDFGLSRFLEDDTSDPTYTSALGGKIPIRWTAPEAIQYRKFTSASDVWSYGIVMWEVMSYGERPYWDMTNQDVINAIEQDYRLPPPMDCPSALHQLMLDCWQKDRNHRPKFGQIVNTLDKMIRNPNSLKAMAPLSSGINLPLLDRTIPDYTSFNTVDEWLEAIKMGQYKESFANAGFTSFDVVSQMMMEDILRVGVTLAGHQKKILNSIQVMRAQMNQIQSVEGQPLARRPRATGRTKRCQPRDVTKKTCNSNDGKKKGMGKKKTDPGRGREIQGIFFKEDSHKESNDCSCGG
- assay.procedure: SelectScreen kinase selectivity assay
- Assay type: biochemical
- Description: The kinase selectivity analysis of PKHD-5 was performed using the SelectScreen kinase analysis service provided by Thermo Fisher Scientific. […] Ultimately, the IC50 values were calculated based on the concentration-inhibition curves by fitting a four-parameter logistic curve, thereby assessing the potency and selectivity of the inhibitors. […]
measured.attribute: IC50

Look up IC50 of Cc1ccc(O)c(C)c1-n1c(N)c(C(N)=O)c2cc(CCCCCC(=O)NO)c(C)nc21 [PKHD-5] and report it.
> 50 µM

---

- target.or.test.system: ALK (Homo sapiens, UniProt Q9UM73)
- Construct: purchased Thermo Fisher Scientific (SelectScreen service)
- Sequence (Q9UM73 19-1620): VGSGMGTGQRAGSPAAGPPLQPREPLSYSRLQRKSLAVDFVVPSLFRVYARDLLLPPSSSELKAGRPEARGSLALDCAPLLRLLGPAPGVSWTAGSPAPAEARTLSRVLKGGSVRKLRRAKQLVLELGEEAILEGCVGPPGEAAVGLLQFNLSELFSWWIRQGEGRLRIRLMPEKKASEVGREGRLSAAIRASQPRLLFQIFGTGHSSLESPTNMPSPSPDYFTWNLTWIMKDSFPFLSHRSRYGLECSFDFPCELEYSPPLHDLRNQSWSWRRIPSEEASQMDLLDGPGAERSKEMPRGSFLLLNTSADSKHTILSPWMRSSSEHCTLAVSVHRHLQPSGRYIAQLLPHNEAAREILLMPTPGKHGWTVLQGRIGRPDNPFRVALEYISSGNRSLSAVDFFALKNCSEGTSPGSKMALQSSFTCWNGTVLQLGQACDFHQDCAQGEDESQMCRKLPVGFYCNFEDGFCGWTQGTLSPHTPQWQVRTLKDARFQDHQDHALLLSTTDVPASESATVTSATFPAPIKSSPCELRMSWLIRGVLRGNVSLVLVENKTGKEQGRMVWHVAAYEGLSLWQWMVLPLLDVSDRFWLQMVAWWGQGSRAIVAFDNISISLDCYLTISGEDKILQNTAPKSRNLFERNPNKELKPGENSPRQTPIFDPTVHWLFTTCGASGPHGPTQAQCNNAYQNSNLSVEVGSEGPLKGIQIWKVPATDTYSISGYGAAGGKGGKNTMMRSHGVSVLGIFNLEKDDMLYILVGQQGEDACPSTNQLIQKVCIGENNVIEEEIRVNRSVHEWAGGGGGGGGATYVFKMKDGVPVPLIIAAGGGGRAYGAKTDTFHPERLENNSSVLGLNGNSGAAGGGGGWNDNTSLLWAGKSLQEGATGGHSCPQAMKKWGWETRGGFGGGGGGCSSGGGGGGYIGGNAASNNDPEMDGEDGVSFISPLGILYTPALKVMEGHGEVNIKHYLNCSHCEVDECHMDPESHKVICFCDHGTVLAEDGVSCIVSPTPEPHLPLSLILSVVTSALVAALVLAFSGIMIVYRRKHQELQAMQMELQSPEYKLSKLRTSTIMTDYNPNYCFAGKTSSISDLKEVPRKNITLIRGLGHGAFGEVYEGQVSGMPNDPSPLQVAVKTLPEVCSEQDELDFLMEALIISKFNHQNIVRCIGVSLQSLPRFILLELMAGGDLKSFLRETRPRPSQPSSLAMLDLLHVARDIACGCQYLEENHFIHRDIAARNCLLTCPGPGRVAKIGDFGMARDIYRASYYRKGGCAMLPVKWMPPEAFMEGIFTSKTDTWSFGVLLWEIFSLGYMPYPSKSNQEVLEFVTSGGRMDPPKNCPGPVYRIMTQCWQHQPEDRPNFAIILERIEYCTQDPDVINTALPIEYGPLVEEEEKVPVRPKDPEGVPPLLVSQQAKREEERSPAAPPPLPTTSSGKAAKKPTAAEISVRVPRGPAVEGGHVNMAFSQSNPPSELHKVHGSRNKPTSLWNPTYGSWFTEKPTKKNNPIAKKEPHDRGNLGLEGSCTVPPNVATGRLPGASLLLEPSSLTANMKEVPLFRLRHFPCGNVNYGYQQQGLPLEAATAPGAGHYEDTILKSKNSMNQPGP
- assay.procedure: SelectScreen kinase selectivity assay
- Type: biochemical
measured.attribute: IC50

Look up IC50 of Cc1ccc(O)c(C)c1-n1c(N)c(C(N)=O)c2cc(CCCCCC(=O)NO)c(C)nc21 [PKHD-5] and report it.
> 50 µM

Values from paper PMC11604427
